interaction score values for the binders below.
assay.target: T1, 4H2143-bA
T1 chain: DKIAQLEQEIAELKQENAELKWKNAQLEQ
procedure.text: two-hybrid library CCNG1;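 note: natural log of median RNA to DNA barcode read ratio; higher means stronger binding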
readout.name: interaction score

binder: DKIAQLEQEIAELKQENAELKWKNAQLEQ [4H2143-bA]
readout.name: interaction score
measured.number: 0.408

binder: DEIAQLEQENAELEQKNAELEWKIAQLKQ [4H182-bA]
readout.name: interaction score
measured.number: -0.647

binder: DKIAQLEQEIAELKQENAELEWKIAQLKQ [4H2134-bA]
readout.name: interaction score
measured.number: 1.32

binder: DEIAQLEQEIAELKQKNAELKWEIAQLEQ [4H121-bA]
readout.name: interaction score
measured.number: -0.624

binder: DEIAQLEQENAELEQKIAELEWKIAQLKQ [4H166-bA]
readout.name: interaction score
measured.number: -0.442

Origin of the recorded values: paper PMC10397247
